Reference for the values: patent US20250368649A1

molecular target: KRas G12D (Homo sapiens, UniProt P01116, G12D); assay: biochemical; conditions: Binding to KRas (IC50 nM) G12D, TR-FRET displacement, KRas G12D
Sequence (P01116 1-169 isoform P01116-2 G12D): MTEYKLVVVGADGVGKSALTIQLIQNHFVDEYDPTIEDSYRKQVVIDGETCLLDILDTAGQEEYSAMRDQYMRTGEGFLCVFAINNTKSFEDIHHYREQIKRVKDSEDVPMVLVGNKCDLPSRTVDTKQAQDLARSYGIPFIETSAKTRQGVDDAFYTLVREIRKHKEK
Field: label. Allowed values: y (IC50 < 100 nM) or n (IC50 >= 100 nM).

>>> cat("CCc1c(F)ccc2cc(O)cc(N3CCc4c(nc(OC[C@@]56CCCN5C[C@H](F)C6)nc4N4CCCn5nc(C(=O)NCCOCCOC)cc5C4)C3)c12")
"y"
>>> cat("CCc1cccc2cccc(N3CCc4c(nc(OCC5(CN(C)C)CC5)nc4N4CC(C)CC(CO)C4)C3)c12 (stereo not shown)")
"n"
>>> cat("CCc1cccc2cccc(N3CCc4c(nc(OCC5(CN(C)C)CC5)nc4N4CCC(F)C(OC)C4)C3)c12 (stereo not shown)")
"n"
>>> cat("CCc1cccc2cccc(N3CCc4c(nc(OCC5(CN(C)C)CC5)nc4N4CCCC(c5nc(C)c(C)[nH]5)C4)C3)c12 (stereo not shown)")
"n"
>>> cat("CCc1c(F)ccc2cc(O)cc(N3CCc4c(nc(OC[C@@]56CCCN5C[C@H](F)C6)nc4N4CCCn5nc(C(=O)N6CC7CCC(C7)C6)cc5C4)C3)c12")
"y"
>>> cat("CCc1c(F)ccc2cc(O)cc(N3CCc4c(nc(OC[C@@]56CCCN5C[C@H](F)C6)nc4N4CCNc5cc(Br)ccc5C4)C3)c12")
"n"
>>> cat("CCc1c(F)ccc2cc(O)cc(N3CCc4c(nc(OC[C@@]56CCCN5C[C@H](F)C6)nc4N4CCCN(CC(F)(F)F)CC4)C3)c12")
"n"
>>> cat("CCc1cccc2cccc(N3CCc4c(nc(OCC5(CN(C)C)CC5)nc4N(C)Cc4nncn4C)C3)c12")
"n"
>>> cat("CCc1c(F)ccc2cc(O)cc(N3CCc4c(nc(OC[C@@]56CCCN5C[C@H](F)C6)nc4N4CCCn5nc(CNS(=O)(=O)N(C)C)cc5C4)C3)c12")
"y"
>>> cat("CCc1c(F)ccc2cc(O)cc(N3CCc4c(nc(OC[C@@]56CCCN5C[C@H](F)C6)nc4N4CCCn5nc(C(=O)N(C)C)c(Br)c5C4)C3)c12")
"y"
>>> cat("CCc1c(F)ccc2cc(O)cc(N3CCc4c(nc(OC[C@@]56CCCN5C[C@H](F)C6)nc4N4CCCn5nc(C(=O)N(C)C)nc5C4)C3)c12")
"y"
>>> cat("CCc1cccc2cccc(N3CCc4c(nc(OCC5(CN(C)C)CC5)nc4NC4CCCc5[nH]ncc54)C3)c12 (stereo not shown)")
"n"
>>> cat("C=C1CN2CCCC2(COc2nc3c(c(N4CC5CC(O)CC4C5)n2)CCN(c2cc(O)cc4ccc(F)c(CC)c24)C3)C1 (stereo not shown)")
"n"
>>> cat("CCc1cccc2cccc(N3CCc4c(nc(OCC5(CN(C)C)CC5)nc4N(C)Cc4nnc5n4CCOC5)C3)c12")
"n"
>>> cat("CCc1c(F)ccc2cc(O)cc(N3CCc4c(nc(OC[C@@]56CCCN5C[C@H](F)C6)nc4N4CCCn5nc(NC)c(F)c5C4)C3)c12")
"y"
>>> cat("CCc1c(F)ccc2cc(O)cc(N3CCc4c(nc(OC[C@@]56CCCN5C[C@H](F)C6)nc4N4CCCn5nc(C(=O)N6CC7CN(C8COC8)CC7C6)cc5C4)C3)c12 (stereo partly shown)")
"y"
>>> cat("CCc1c(F)ccc2cc(O)cc(N3CCc4c(nc(OC[C@@]56CCCN5C[C@H](F)C6)nc4N4CCCCC(C(=O)N(C)C)C4)C3)c12 (stereo partly shown)")
"y"
>>> cat("CCc1c(F)ccc2cc(O)cc(N3CCc4c(nc(OCC56CCCN5C/C(=C\\F)C6)nc4N4CCCn5nc(C(=O)N(C)C)cc5C4)C3)c12 (stereo not shown)")
"y"
>>> cat("CCc1cccc2cccc(N3CCc4c(nc(OCC5(CN(C)C)CC5)nc4NC4CN(c5nncs5)C4)C3)c12")
"n"
>>> cat("Cc1cc2[nH]ncc2c(N2CCc3c(nc(OC[C@@]45CCCN4C[C@H](F)C5)nc3N3CCC[C@]4(C3)NC(=O)NC4=O)C2)c1C")
"y"
>>> cat("CCc1c(NC)nn2c1CN(c1nc(OC[C@@]34CCCN3C[C@H](F)C4)nc3c1CCN(c1cc(O)cc4ccc(F)c(CC)c14)C3)CCC2")
"y"
>>> cat("CCCCN(C)C(=O)c1cc2n(n1)CCCN(c1nc(OC[C@@]34CCCN3C[C@H](F)C4)nc3c1CCN(c1cc(O)cc4ccc(F)c(CC)c14)C3)C2")
"y"
>>> cat("CCc1cccc2cccc(N3CCc4c(nc(OCC5(CN(C)C)CC5)nc4N(C)Cc4nnnn4C)C3)c12")
"n"
>>> cat("CCc1c(F)ccc2cc(O)cc(N3CCc4c(nc(OC[C@@]56CCCN5C[C@H](F)C6)nc4N4CCCn5nc(NS(C)(=O)=O)cc5C4)C3)c12")
"y"
>>> cat("Cc1cc2[nH]ncc2c(N2CCc3c(nc(OCC45CCCN4CCC5)nc3N3CCC[C@]4(C3)NC(=O)NC4=O)C2)c1C")
"y"
